experimental_target: Human immunodeficiency virus type 1 reverse transcriptase (Human immunodeficiency virus 1) (UniProt Q72547)
Rule for this label: Y means ID50 is less than 60 nM; N means ID50 is at least 60 nM.

>  <molecule_smiles>
O=C(CSc1nc(Cc2c(F)cccc2Cl)cc(=O)[nH]1)c1ccc(F)cc1

>  <qualitative_label>
N

$$$$
>  <molecule_smiles>
CC(C)c1c(Cc2c(F)cccc2F)nc(SCC(=O)c2ccc(F)cc2)[nH]c1=O

>  <qualitative_label>
N

$$$$
>  <molecule_smiles>
CC(C)c1c(Cc2c(F)cccc2Cl)nc(SCC(=O)c2ccccc2)[nH]c1=O

>  <qualitative_label>
Y

$$$$
>  <molecule_smiles>
Cc1c(Cc2c(F)cccc2F)nc(SCC(=O)c2ccc(F)cc2)[nH]c1=O

>  <qualitative_label>
N

$$$$
>  <molecule_smiles>
CC(C)c1c(Cc2c(Cl)cccc2Cl)nc(SCC(=O)c2ccccc2)[nH]c1=O

>  <qualitative_label>
Y

$$$$
>  <molecule_smiles>
Cc1c(Cc2c(F)cccc2F)nc(SCC(=O)c2ccccc2)[nH]c1=O

>  <qualitative_label>
N

$$$$
>  <molecule_smiles>
COc1ccc(C(=O)CSc2nc(Cc3c(Cl)cccc3Cl)cc(=O)[nH]2)cc1

>  <qualitative_label>
Y

$$$$
>  <molecule_smiles>
COc1ccc(C(=O)CSc2nc(Cc3c(Cl)cccc3Cl)c(C(C)C)c(=O)[nH]2)cc1

>  <qualitative_label>
Y

$$$$
>  <molecule_smiles>
Cc1c(Cc2c(F)cccc2Cl)nc(SCC(=O)c2ccc(F)cc2)[nH]c1=O

>  <qualitative_label>
N

$$$$
>  <molecule_smiles>
CC(C)c1c(Cc2c(Cl)cccc2Cl)nc(SCC(=O)c2ccc(F)cc2)[nH]c1=O

>  <qualitative_label>
Y

$$$$
>  <molecule_smiles>
O=C(CSc1nc(Cc2c(F)cccc2Cl)cc(=O)[nH]1)c1ccccc1

>  <qualitative_label>
Y

$$$$
>  <molecule_smiles>
CC(C)c1c(Cc2c(F)cccc2Cl)nc(SCC(=O)c2ccc(F)cc2)[nH]c1=O

>  <qualitative_label>
Y

$$$$
>  <molecule_smiles>
COc1ccc(C(=O)CSc2nc(Cc3c(F)cccc3F)c(C)c(=O)[nH]2)cc1

>  <qualitative_label>
N

$$$$
>  <molecule_smiles>
COc1ccc(C(=O)CSc2nc(Cc3c(Cl)cccc3Cl)c(C)c(=O)[nH]2)cc1

>  <qualitative_label>
N

$$$$

* * *

# ID50 listing for each entry below
Tested on: Human immunodeficiency virus type 1 reverse transcriptase (Human immunodeficiency virus 1), Q72547 [L100I]

>  <compound>
CCc1c(Cc2c(F)cccc2Cl)nc(SCC(=O)c2ccc(F)cc2)[nH]c1=O

>  <units_symbol>
µM

>  <op>
=

>  <ID50>
5.6

$$$$
>  <compound>
CC(C)c1c(Cc2c(F)cccc2F)nc(SCC(=O)c2ccc(F)cc2)[nH]c1=O

>  <units_symbol>
µM

>  <op>
=

>  <ID50>
5.7

$$$$
>  <compound>
O=C(CSc1nc(Cc2c(F)cccc2Cl)cc(=O)[nH]1)c1ccc(F)cc1

>  <units_symbol>
µM

>  <op>
>

>  <ID50>
40

$$$$
>  <compound>
COc1ccc(C(=O)CSc2nc(Cc3c(F)cccc3F)c(C)c(=O)[nH]2)cc1

>  <units_symbol>
µM

>  <op>
>

>  <ID50>
40

$$$$
>  <compound>
COc1ccc(C(=O)CSc2nc(Cc3c(F)cccc3Cl)c(C(C)C)c(=O)[nH]2)cc1

>  <units_symbol>
µM

>  <op>
>

>  <ID50>
40

$$$$
>  <compound>
COc1ccc(C(=O)CSc2nc(Cc3c(F)cccc3F)c(C(C)C)c(=O)[nH]2)cc1

>  <units_symbol>
µM

>  <op>
>

>  <ID50>
40

$$$$
>  <compound>
CCC(C)c1c(Cc2c(F)cccc2Cl)nc(SCC(=O)c2ccc(OC)cc2)[nH]c1=O (stereo not given)

>  <units_symbol>
µM

>  <op>
=

>  <ID50>
27.4

$$$$
>  <compound>
O=C(CSc1nc(Cc2c(F)cccc2Cl)cc(=O)[nH]1)c1ccccc1

>  <units_symbol>
µM

>  <op>
=

>  <ID50>
1.5

$$$$
>  <compound>
CCc1c(Cc2c(F)cccc2F)nc(SCC(=O)c2ccccc2)[nH]c1=O

>  <units_symbol>
µM

>  <op>
=

>  <ID50>
5.4

$$$$
>  <compound>
O=C(CSc1nc(Cc2c(Cl)cccc2Cl)cc(=O)[nH]1)c1ccccc1

>  <units_symbol>
µM

>  <op>
=

>  <ID50>
11

$$$$
>  <compound>
COc1ccc(C(=O)CSc2nc(Cc3c(Cl)cccc3Cl)c(C(C)C)c(=O)[nH]2)cc1

>  <units_symbol>
µM

>  <op>
>

>  <ID50>
40

$$$$
>  <compound>
COc1ccc(C(=O)CSc2nc(Cc3c(F)cccc3Cl)cc(=O)[nH]2)cc1

>  <units_symbol>
µM

>  <op>
=

>  <ID50>
0.5

$$$$
>  <compound>
COc1ccc(C(=O)CSc2nc(Cc3c(Cl)cccc3Cl)cc(=O)[nH]2)cc1

>  <units_symbol>
µM

>  <op>
>

>  <ID50>
40

$$$$
>  <compound>
CCc1c(Cc2c(F)cccc2F)nc(SCC(=O)c2ccc(OC)cc2)[nH]c1=O

>  <units_symbol>
µM

>  <op>
>

>  <ID50>
40

$$$$
>  <compound>
Cc1c(Cc2c(Cl)cccc2Cl)nc(SCC(=O)c2ccccc2)[nH]c1=O

>  <units_symbol>
µM

>  <op>
=

>  <ID50>
7.8

$$$$
>  <compound>
CC(C)c1c(Cc2c(F)cccc2F)nc(SCC(=O)c2ccccc2)[nH]c1=O

>  <units_symbol>
µM

>  <op>
=

>  <ID50>
4.8

$$$$
>  <compound>
Cc1c(Cc2c(F)cccc2F)nc(SCC(=O)c2ccc(F)cc2)[nH]c1=O

>  <units_symbol>
µM

>  <op>
=

>  <ID50>
39.2

$$$$
>  <compound>
CCc1c(Cc2c(Cl)cccc2Cl)nc(SCC(=O)c2ccc(OC)cc2)[nH]c1=O

>  <units_symbol>
µM

>  <op>
=

>  <ID50>
2.42

$$$$
>  <compound>
CC(C)c1c(Cc2c(Cl)cccc2Cl)nc(SCC(=O)c2ccccc2)[nH]c1=O

>  <units_symbol>
µM

>  <op>
=

>  <ID50>
10.1

$$$$
>  <compound>
O=C(CSc1nc(Cc2c(Cl)cccc2Cl)cc(=O)[nH]1)c1ccc(F)cc1

>  <units_symbol>
µM

>  <op>
=

>  <ID50>
26.1

$$$$
